# system-under-test: APOL1 G2 (Homo sapiens, UniProt O14791, DEL388-389)
# Construct: expressed in transfected cells; host or cells: HEK293 T-REx clonal line stably expressing GCaMP6f (HEK T-REx/GCaMP6f/APOL1 G2 K6.3), doxycycline induced
# Sequence (O14791 with tags, fused parts or gaps DEL388-389): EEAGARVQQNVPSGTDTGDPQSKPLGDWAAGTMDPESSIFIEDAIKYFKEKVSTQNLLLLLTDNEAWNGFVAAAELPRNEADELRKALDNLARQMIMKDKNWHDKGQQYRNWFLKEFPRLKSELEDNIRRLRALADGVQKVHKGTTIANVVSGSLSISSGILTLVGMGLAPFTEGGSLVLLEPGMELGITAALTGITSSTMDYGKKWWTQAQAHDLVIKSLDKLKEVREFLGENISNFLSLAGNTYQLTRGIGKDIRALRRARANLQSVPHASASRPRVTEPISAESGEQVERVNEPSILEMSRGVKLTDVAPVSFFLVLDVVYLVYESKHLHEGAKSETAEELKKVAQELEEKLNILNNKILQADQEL
# assay-procedure: APOL1-mediated calcium transport (calcium influx) assay, HEK T-REx/GCaMP6f/APOL1 G2 K6.3 cells, FLIPR TETRA
# Assay type: cell-based
# condition-info: prevention of calcium influx; geometric mean of at least 2 assay runs; † = average of a technical replicate from a single assay run
# From the text: A HEK293 clonal cell line was generated to stably express GCaMP6f, a genetically encoded calcium indicator, and inducibly express APOL1 G2 (HEK T-REx/GCaMP6f/APOL1 G2 K6.3). […]
measured-parameter: log10 of AC50 (log10 of the value in nM)
Remember, log10 of AC50, in nM.

Worked cases, log10 of AC50 given:
CNC(=O)c1ccc(OCCN2CCC3(CC2)C(=O)Nc2ccc(Cl)cc23)cc1 [Compound 52] | 2.79
CC(c1ccc(OCCN2CCC3(CC2)C(=O)Nc2ccc(Cl)cc23)cc1)S(C)(=O)=O (single isomer, unassigned) [Compound 39] | 2.87
O=C1CCc2cc(OCCN3CCC4(CC3)C(=O)Nc3ccc(C(F)F)cc34)cnc2N1C1CC(CO)C1 (stereo not shown) [Compound 316] | 3.06
CS(=O)(=O)c1ccc(OCCN2CCC3(CC2)C(=O)N(C2COC2)c2ccc(Cl)cc23)cc1 [Compound 22] | 2.49
O=C1NCc2cc(OCCN3CCC4(CC3)C(=O)Nc3ccc(Cl)cc34)ccc21 [Compound 171] | 2.78

Q: Specify measured log10 of AC50 for CC(COc1ccc(C2(S(C)(=O)=O)COC2)cc1)N1CCC2(CC1)C(=O)Nc1ccc(C#N)cc12 (single isomer, unassigned) [Compound 263] .
Result: 3.40

Q: Specify measured log10 of AC50 for CS(=O)(=O)c1ccc(OCCN2CCC3(CC2)C(=O)N(CCO)c2ccc(Br)cc23)cc1 [Compound 24] .
Result: 2.30

* * *

# Tested on: HEK293 clonal cell line overexpressing APOL1 G1
# assay-procedure: APOL1 G1 HEK293 cell rescue assay (Example B3)
# Assay type: cell-based
# condition-info: Homo sapiens, HEK293, HEK293 clonal line overexpressing APOL1 G1; geometric mean of at least 2 runs; † = single run; ¥ = concentration at 50% rescue estimated (no sigmoidal curve)
Measured pEC50 by item
pEC50 is a log-scale quantity: -log10 of the concentration expressed in molar.

C[C@]1(O)C[C@@H](N2C(=O)NCc3cc(OCCN4CCC5(CC4)C(=O)Nc4ccc(Cl)cc45)cc(C(F)(F)F)c32)C1 [Compound 456] | 7.01

Q: Report pEC50 on HEK293 clonal cell line overexpressing APOL1 G1 for this entry: CN(C)C(=O)c1ccc(OCCN2CCC3(CC2)C(=O)Nc2ccc(Cl)cc23)cn1 [Compound 51]
Result: 5.90

Q: Report pEC50 on HEK293 clonal cell line overexpressing APOL1 G1 for this entry: C[C@]1(O)C[C@@H](N2C(=O)CCc3cc(OCCN4CCC5(CC4)C(=O)Nc4ccc(Cl)cc45)cnc32)C1 [Compound 275]
Result: 7.20

Q: Report pEC50 on HEK293 clonal cell line overexpressing APOL1 G1 for this entry: CC1(O)CN(c2ncc(OCCN3CCC4(CC3)C(=O)Nc3ccc(C#N)cc34)cc2C(F)(F)F)C1 [Compound 431]
Result: 7.43

Q: Report pEC50 on HEK293 clonal cell line overexpressing APOL1 G1 for this entry: CC(O)c1ncc(OCCN2CCC3(CC2)C(=O)Nc2ccc(C(F)F)cc23)cc1C(F)(F)F (centres unmarked) [Compound 296]
Result: 6.80
